# testSummary: NOVARTIS: Cytotoxicity against human hepatocellular carcinoma cell line (Huh7)
# Type: toxicity, cell-based, Huh-7
# testContext: Huh7 cells (hepatocellular carcinoma cell line)

molecule | CC50
COc1ccc(NC(C)=C2C(=O)c3ccccc3C2=O)c(OC)c1 | > 100 µM
CC(=O)Oc1cccc(C=c2sc3ncnn3c2=O)c1 | > 10 µM
CC(=O)N(C1=C(N(C)C)C(=O)c2ccccc2C1=O)c1ccc(F)c(F)c1 | 2.36 µM
Cn1ccnc1C1CCCCN1C(=O)c1cc(COc2ccc(F)cc2Cl)on1 (stereo not given) | > 100 µM
Cc1ccc(-c2c[n+](Cc3cccc(C)c3)c3n2CCC3)cc1 | 20.6 µM
COc1ccc(/C=C2\SC(=N)N(c3ccc4c(c3)OCO4)C2=O)cc1OC | > 10 µM
Nc1ccc(-c2nc(-c3ccc(N)cc3)c3ccccc3n2)cc1 | > 10 µM
COc1cc(C=C(C#N)c2nc3ccccc3[nH]2)ccc1OCc1ccccc1Cl | > 100 µM
COc1ccc(OC)c(-c2ccc(O)c(CNCC3(O)CCCCC3)c2)c1 | > 10 µM
CC1CCC(Nc2ccnc3cc(Cl)ccc23)CC1 (stereo not given) | > 10 µM
CC(C)(C)NC(=O)C(c1cccs1)N(CCCN1CCOCC1)C(=O)c1ccc(-c2ccccc2)[nH]1 (stereo not given) | > 10 µM
c1ccc(CC[n+]2cc(-c3ccccc3)n3c2CCC3)cc1 | > 100 µM
CCN1CCCC(Nc2ccnc3cc4ccccc4cc23)C1 (stereo not given) | 3.75 µM
COc1ccc(NC(=O)CCCCCn2c(SCC(=O)c3ccccc3)nc3ccsc3c2=O)cc1 | > 100 µM
Brc1ccc(-c2n(Cc3ccccc3)c3ccccc3[n+]2Cc2ccccc2)o1 | 11 µM

----------
# testSummary: NOVARTIS: Cytotoxicity against human hepatocellular carcinoma cell line (Huh7)
# Assay type: toxicity, cell-based, Huh-7
# testContext: Huh7 cells (hepatocellular carcinoma cell line)
Structures can show the parent of a compound that is named as a salt.

molecule | CC50
CCC(=O)N(C1=C(NC)C(=O)c2ccccc2C1=O)C(C)C | 0.563 µM
CCOc1ccc2nc3cc(NC(=O)c4ccc(C)cc4)ccc3c(N)c2c1 | > 10 µM
CCCCCC1CCCc2c1[nH]c1cc(Cl)ccc1c2=O (stereo unspecified) | > 100 µM
CCNC(=O)N1CCN(CCN(C/C=C/c2ccccc2OC)C(=O)CC(C)CC(C)(C)C)CC1 (stereo unspecified) | > 10 µM
O=C(NCCc1ccccc1)c1cnc(NCCC2=CCCCC2)nc1NCC1CCCCC1 | > 10 µM
CC(=O)N(C1=C(N2CCCCC2)C(=O)c2ccccc2C1=O)c1cccc(Cl)c1 | 32 µM
CCN1CC=C2C(C#N)=C(N)C(C#N)(C#N)[C@H](c3ccc(C)s3)[C@H]2C1 | > 100 µM
COc1ccc2nc(C)cc(N(c3ccc(Br)cc3)S(=O)(=O)c3ccc([N+](=O)[O-])cc3)c2c1 | 6.83 µM
COC(=O)c1c(-c2c(Cl)cccc2Cl)noc1NC(=O)NN1CCCCC1 | > 100 µM
CSc1oc(-c2ccccc2)nc1C(N)=O | > 10 µM
Oc1c(C(Nc2ccccn2)c2ccc(Cl)cc2Cl)ccc2cccnc12 (stereo unspecified) | > 10 µM
COC(=O)c1cccc(NC(=O)/C(=C\c2cccc([N+](=O)[O-])c2)NC(=O)c2ccccc2OC)c1 | > 10 µM
Cc1ccc(C[n+]2cc(-c3ccc(C)cc3)n3c2CCC3)cc1 | 34.5 µM
CC(C)CCNCC(O)Cn1c2ccccc2c2ccccc21 (stereo unspecified) | 8.06 µM
CCCCNC(=O)C(c1cccc(OC)c1)N1C(=O)c2cc(OCCc3cccc(OC)c3)ccc2NC(=O)C1CO (stereo unspecified) | > 10 µM
CC(C)c1cccc(C(C)C)c1NC(=O)N(Cc1ccccc1)C(C)c1nc2ccccc2c(=O)n1-c1ccccc1 (stereo unspecified) | > 10 µM
COc1cc(C(=O)NCCc2ccccn2)ccc1OC1CCN(CC(c2ccccc2)c2ccccc2)CC1 | 13 µM
CCn1ccnc1CC1COc2ccccc2O1 (stereo unspecified) [IMILOXAN HYDROCHLORIDE] | > 10 µM
Cc1cc(-c2cnc(C)nc2C2CCN(C(=O)c3ccc4ncccc4c3)CC2)on1 | > 11.6 µM
COC(=O)c1c(-c2c(Cl)cccc2Cl)noc1/C=C/Nc1ccccc1 | > 10 µM
COc1ccc(-n2c(CNC(=O)c3cccc4ccccc34)n[nH]c2=S)cc1 | > 100 µM
CC1=C(CC(=O)c2cccs2)C(=O)c2ccccc2C1=O | 7.75 µM
Cc1cc(I)ccc1N1C(=O)C2C3c4ccccc4C(CO)(c4ccccc43)C2C1=O (stereo unspecified) | > 67.9 µM
Cc1nc2ccccc2c(=O)n1NC(=O)c1cccc([N+](=O)[O-])c1 | > 100 µM
COc1cccc(N2C(N)=NC(N)=NC2(C)C)c1 | > 100 µM
Cc1ncc([N+](=O)[O-])n1CCOC(=O)c1c(NC(=O)c2ccccc2)sc2c1CCCC2 | > 100 µM
Cc1nc(C23CC4CC(CC(C4)C2)C3)cs1 | > 100 µM
COc1cccc2c1OCC(CN1CCC(C(=O)Nc3ccc(-n4cccn4)cc3)CC1)=C2 | > 100 µM
CC(C)CN(CC(=O)Nc1cc(C(C)(C)C)nn1-c1ccccc1)C(=O)Cc1cccs1 | > 10 µM
CON(C)C=C(C(=O)Nc1ccc(C(F)(F)F)cc1)C(=O)Nc1ccc(C(F)(F)F)cc1 | > 10 µM
COc1ccc(-c2c[n+](Cc3ccccc3Cl)c3n2CCC3)cc1 | 52.5 µM

----------
# Tested on: Huh-7
# testSummary: NOVARTIS: Cytotoxicity against human hepatocellular carcinoma cell line (Huh7)
# Format: toxicity, cell-based
# testContext: huh-7, read-out: CC50
assayReadout: CC50

compound | result
CCN1/C(=C/c2[se]c3ccccc3[n+]2CC)C=Cc2cc(OC)ccc21 | 4.95 µM
Cc1cccc(N=C2NC(=O)/C(=C\c3ccc(N(C)C)cc3)S2)c1 | > 100 µM
Cc1ccc(-n2c(C)cc(/C=C3\SC(=Nc4ccc(Cl)cc4)NC3=O)c2C)cc1 | > 100 µM
O=C1NN(c2ccccc2)C(=O)/C1=C1/C(=O)N(Cc2cccc3ccccc23)c2ccccc21 | > 100 µM
Cc1cc(/C=C2\Sc3ccccc3N2C)[n+](C)c2ccccc12 | 11.5 µM
CCCCCC[n+]1ccccc1C=Cc1ccc(N(C)C)cc1 | 2.41 µM
CCN1/C(=C\C=C\c2n(CC)c3ccc(C#N)cc3[n+]2CC)Oc2ccc(-c3ccccc3)cc21 | > 100 µM
Cc1ccc(/C=C2/SC(=Nc3ccccc3)NC2=O)c(C)c1 | > 100 µM
CCN1/C(=C/c2cccc[n+]2C)Sc2ccccc21 | > 100 µM
CCN1C(=Cc2sc3cc(NC(C)=O)ccc3[n+]2CC)C=Cc2cc(C)ccc21 | > 90.6 µM
CCOc1ccc(Br)cc1/C=C1\SC(=Nc2ccccc2CC)N(c2ccccc2CC)C1=O | > 100 µM
Cc1cc(/C=C2\SC(=Nc3ccccc3)NC2=O)c(C)n1-c1ccccc1 | > 99.7 µM
COc1ccc(/C=C2\SC(=O)NC2=Nc2ccccc2)cc1 | > 100 µM
CN(C)c1ccc(C=CC=Cc2cc[n+](C)cc2)cc1.[O-][Cl+3]([O-])([O-])[O-] | > 100 µM
CCN(CC)c1ccc(C=Cc2cccc[n+]2CC)cc1 | 44.9 µM
CCN1/C(=C/c2ccc3cc(OC)ccc3[n+]2CC)Sc2cc(C)ccc21 | 11.7 µM
C[n+]1ccc(C=Cc2ccc(O)cc2)cc1 | > 100 µM
CCOc1ccc(/C=C2/SC(=Nc3ccccc3)NC2=O)cc1OC | > 100 µM
CCOC(=O)c1ccc(-n2c(C)cc(/C=C3\SC(=Nc4ccc(Cl)cc4)NC3=O)c2C)cc1 | > 100 µM
CCOc1ccc2nccc([C@@H](O)[C@@H]3C[C@@H]4CCN3C[C@@H]4CC)c2c1 [ETHYLHYDROCUPREINE] | 53.8 µM
CCN1/C(=C/c2cccc[n+]2C)C=Cc2cc(C)ccc21 | > 100 µM
CC[n+]1c(C=C2Sc3ccccc3N2CCO)sc2ccccc21 | > 10 µM
CN(C)c1ccc(C=CC=Cc2cc[n+](C)cc2)cc1 | > 10 µM
CCN(CC)c1ccc(C=Cc2cc[n+](Cc3ccc(F)cc3)cc2)cc1 | > 10 µM
CCN1/C(=C/c2ccc3ccccc3[n+]2CC)Sc2c1ccc1ccccc21 | 7.14 µM
OCC[n+]1ccc(/C=C/c2c[nH]c3ccccc23)cc1 | > 100 µM
CC[n+]1c(C=CN(C)C)sc2ccccc21 | > 10 µM
CCN1/C(=C/C=C/c2sc3ccccc3[n+]2CC)Sc2ccccc21 [ALAZANINE] | 27 µM
COc1ccc2c(c1)N(C)/C(=C/c1cccc[n+]1C)S2 | > 100 µM
COc1cc(/C=C2/SC(=Nc3ccccc3)NC2=O)ccc1OCc1ccccc1F | > 100 µM
C[n+]1c(C=CNc2ccccc2)n(-c2ccccc2)c2ccc(Cl)cc21 | > 10 µM
CCN1/C(=C/c2cccc[n+]2C)C=Cc2ccccc21 | > 64.5 µM
C[n+]1ccc(/C=C/c2c[nH]c3ccccc23)cc1 | > 100 µM
COc1ccc(/C=C2/SC(=Nc3ccccc3)NC2=O)c(OC)c1 | > 100 µM
